Value source: the RNAGym collection of RNA variant scans (doi:10.1073/pnas.2313332121)

B1: TPR t1 (parent)
chain: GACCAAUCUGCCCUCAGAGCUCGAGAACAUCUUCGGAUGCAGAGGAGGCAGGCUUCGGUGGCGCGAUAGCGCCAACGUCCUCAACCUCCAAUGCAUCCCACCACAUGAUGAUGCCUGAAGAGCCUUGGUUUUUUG

Variants of: B1
Test: polymerase ribozyme fitness, log enrichment relative to wild type (log ratio); higher = more active; in vitro selection for triplet polymerase activity
experimental-readout: polymerase ribozyme fitness (log ratio)
One number for each entry.

Take a look at these entries with their results.
// recorded polymerase ribozyme fitness (log ratio) for C31G C88A G110U C115A : -7.42

// recorded polymerase ribozyme fitness (log ratio) for A26C G61A U96A : -5.9

// recorded polymerase ribozyme fitness (log ratio) for C73U C85G : -2.85

// recorded polymerase ribozyme fitness (log ratio) for C4G C73U : -1.69

// recorded polymerase ribozyme fitness (log ratio) for U78C C102G : -5.35

// recorded polymerase ribozyme fitness (log ratio) for G39A G69C : -0.611

Go through the list and state polymerase ribozyme fitness (log ratio) for each entry.
1. A5C C8G A37U U38C A43C G57A G110A C124U
2. G25C A29G U33C G60A C98U G113C
3. C3U U81G
4. G60A C101A U106A A119U C123U
5. C72U C124G

-5.51
-7.69
-4.04
-4.23
1.47
